tested on: up to 32 different microorganisms; test: in vitro antibacterial activity (MIC), agar dilution on Brain Heart Infusion (BHI) agar with Steers replicator; assay type: cell-based; details: Streptococcus pyogenes PIU 2548 (code NN); unit assumed
measure: MIC (µg/mL)
Write it as a number; the unit µg/mL goes unstated.

Kindly note the recorded MIC for CCC1OC(=O)C(C)C(=O)C(C)C(OC2OC(C)CC(N(C)C)C2O)C(C)(OCC=Cc2ccc3c(c2)OCO3)CC(C)C(=O)C(C)C2NC(=O)OC12C (stereo not drawn) [Example 188] , which is 0.1

Kindly note the recorded MIC for CC[C@H]1OC(=O)[C@H](C)C(=O)[C@H](C)[C@@H](O[C@@H]2O[C@H](C)C[C@H](N(C)C)[C@H]2O)[C@@](C)(OCC=Cc2ccccc2)C[C@@H](C)C(=O)[C@H](C)[C@H]2OC(=O)O[C@@]21C [Example 72] , which is 0.2

Kindly note the recorded MIC for CCC1OC(=O)C(C)C(=O)C(C)C(OC2OC(C)CC(N(C)C)C2O)C(C)(OCC=Cc2cnc3ccc(Cl)cc3c2)CC(C)C(=O)C(C)C2NC(=O)OC12C (stereo not drawn) [Example 191, R is —CH2CH═CH-(6-chloro-3-quinolyl)] , which is 0.1

Kindly note the recorded MIC for C=CCOC1(C)CC(C)C(=O)C(C)C2N(CC=C)C(=O)OC2(C)C(CC)OC(=O)C(C)C(=O)C(C)C1OC1OC(C)CC(N(C)C)C1O (stereo not drawn) [Example 183] , which is 3.1

Kindly note the recorded MIC for CCC1OC(=O)C(C)C(=O)C(C)C(OC2OC(C)CC(N(C)C)C2O)C(C)(OCC=Cc2cnc3ccccc3c2)CC(C)C(=O)C(C)C2N(CC=Cc3cnc4ccccc4c3)C(=O)OC12C (stereo not drawn) [Example 184] , which is 1.56

Kindly note the recorded MIC for CC[C@H]1OC(=O)[C@H](C)C(=O)[C@H](C)[C@@H](O[C@@H]2O[C@H](C)C[C@H](N(C)C)[C@H]2O)[C@@](C)(OCc2ccc3ccccc3c2)C[C@@H](C)C(=O)[C@H](C)[C@H]2NC(=O)O[C@@]21C [Example 176] , which is 0.2

Kindly note the recorded MIC for CCC1OC(=O)C(C)C(=O)C(C)C(OC2OC(C)CC(N(C)C)C2O)C(C)(OCC=Cc2cnc3ccc([N+](=O)[O-])cc3c2)CC(C)C(=O)C(C)C2NC(=O)OC12C (stereo not drawn) [Example 195, R is —CH2CH═CH-(6-nitroquinolyl)] , which is 0.1

Kindly note the recorded MIC for CC[C@H]1OC(=O)[C@H](C)C(=O)[C@H](C)[C@@H](O[C@@H]2O[C@H](C)C[C@H](N(C)C)[C@H]2O)[C@@](C)(OCC=Cc2ccc(Cl)cc2)C[C@@H](C)C(=O)[C@H](C)[C@@H](O)[C@]1(C)O [Example 17] , which is 0.78

Kindly note the recorded MIC for CC[C@H]1OC(=O)[C@H](C)C(=O)[C@H](C)[C@@H](O[C@@H]2O[C@H](C)C[C@H](N(C)C)[C@H]2O)[C@@](C)(OCC=Cc2cnc3ccccc3c2)C[C@@H](C)C(=O)[C@H](C)[C@@H](O)[C@]1(C)O [Example 18] , which is 0.1
